These entries and their values trace back to patent US20210340208A1.

Target: T1, human CD122-Fc (AbroBio) (human, UniProt P14784 27-239)
T1 construct: also called IL-2Rβ; not shown: Fc part and any linker of the bought protein are not described; captured on an anti-human Fc sensor
T1 sequence: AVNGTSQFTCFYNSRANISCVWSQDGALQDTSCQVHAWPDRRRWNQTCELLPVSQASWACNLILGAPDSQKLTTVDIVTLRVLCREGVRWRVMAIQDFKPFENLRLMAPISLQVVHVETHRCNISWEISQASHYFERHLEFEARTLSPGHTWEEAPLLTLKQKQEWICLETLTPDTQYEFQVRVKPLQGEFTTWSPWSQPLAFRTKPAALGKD
Assay: BLI (Octet RED96), CD122-Fc on AHC sensor, 400 nM hIL-2 polypeptide
PARAMETER: CD122 Binding Response (A1 normalized to 1)
# output: bare number, no unit

hIL-2-anti-HSA A65 (ligand, fused to anti-HSA VHH; also called hIL-2 mutein (Q13N, K32E, F42C, V69C, C125S)) APTSSSTKKTQLNLEHLLLDLQMILNGINNYENPKLTRMLTCKFYMPKKATELKHLQCLEEELKPLEECLNLAQSKNFHLRPRDLISNINVIVLELKGSETTFMCEYADETATIVEFLNRWITFSQSIISTLTGSGGSGGSGGSGEVQLVESGGGLVQPGGSLRLSCAASGSTWSINTLAWYRQAPGKQRDLVARISSGGSTYYADSVKGRFTISRDNSKNTLYLQMNSLRAEDTAVYYCYAQSTWYPPSWGQGTLVTVSS : 0.5
hIL-2-anti-HSA A68 (ligand, fused to anti-HSA VHH; also called hIL-2 mutein (K32E, F42C, V69C, S87E, C125S)) APTSSSTKKTQLQLEHLLLDLQMILNGINNYENPKLTRMLTCKFYMPKKATELKHLQCLEEELKPLEECLNLAQSKNFHLRPRDLIENINVIVLELKGSETTFMCEYADETATIVEFLNRWITFSQSIISTLTGSGGSGGSGGSGEVQLVESGGGLVQPGGSLRLSCAASGSTWSINTLAWYRQAPGKQRDLVARISSGGSTYYADSVKGRFTISRDNSKNTLYLQMNSLRAEDTAVYYCYAQSTWYPPSWGQGTLVTVSS : 1.72

// next item, CD122 Binding Response (A1 normalized to 1) requested
Inquiry: # return recorded CD122 Binding Response (A1 normalized to 1) for input hIL-2-anti-HSA A60 (ligand, fused to anti-HSA VHH; also called hIL-2 mutein (T3A, E15V, R38N, L40T, F42A, C125S)) APASSSTKKTQLQLVHLLLDLQMILNGINNYKNPKLTNMTTAKFYMPKKATELKHLQCLEEELKPLEEVLNLAQSKNFHLRPRDLISNINVIVLELKGSETTFMCEYADETATIVEFLNRWITFSQSIISTLTGSGGSGGSGGSGEVQLVESGGGLVQPGGSLRLSCAASGSTWSINTLAWYRQAPGKQRDLVARISSGGSTYYADSVKGRFTISRDNSKNTLYLQMNSLRAEDTAVYYCYAQSTWYPPSWGQGTLVTVSS
Reply text: 0.14
